- Test system: RXRa DBDmut IVT, anti-RXR (DBD mutation: RXRa K156A/R161A, NR concentration 90 nM)
- Experiment Notes: PBM binding z-score (relative to random genomic background probes); higher = stronger binding; sequences stand for … in GC…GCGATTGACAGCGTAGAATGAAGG
Criterion: PBM binding z-score meeting or surpassing 0.7. Met: label 1. Not met: label 0.

{"Seq String": "TACCCTAGGTCATGCGGGCCAGTATAGTGTCGGC", "Target Or System": "RXRa DBDmut IVT, anti-RXR (DBD mutation: RXRa K156A/R161A, NR concentration 90 nM)", "Cat": "label 1"}
{"Seq String": "TCTTGTAGATCAGCAGGTGAAGAAAGCTGGCCAA", "Target Or System": "RXRa DBDmut IVT, anti-RXR (DBD mutation: RXRa K156A/R161A, NR concentration 90 nM)", "Cat": "label 0"}
{"Seq String": "CCTACTGGGCCAAAAAGGTCATAGATGCCGATAA", "Target Or System": "RXRa DBDmut IVT, anti-RXR (DBD mutation: RXRa K156A/R161A, NR concentration 90 nM)", "Cat": "label 0"}
{"Seq String": "CCGTGTAGGTTATGGGGCATTCAGGCAACGGTGA", "Target Or System": "RXRa DBDmut IVT, anti-RXR (DBD mutation: RXRa K156A/R161A, NR concentration 90 nM)", "Cat": "label 0"}
{"Seq String": "AGTCAAAGTTCAGGACGAGGTAACATAAAGCACG", "Target Or System": "RXRa DBDmut IVT, anti-RXR (DBD mutation: RXRa K156A/R161A, NR concentration 90 nM)", "Cat": "label 1"}
{"Seq String": "TCTTGTAGATCAAGCAGGTTACGAAAGCCTGAGT", "Target Or System": "RXRa DBDmut IVT, anti-RXR (DBD mutation: RXRa K156A/R161A, NR concentration 90 nM)", "Cat": "label 0"}

###

- Test system: RXRa DBDmut IVT, anti-RXR (DBD mutation: RXRa K156A/R161A, NR concentration 90 nM)
- Experiment Notes: PBM binding z-score (relative to random genomic background probes); higher = stronger binding; sequences stand for … in GC…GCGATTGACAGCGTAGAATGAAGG
Criterion: PBM binding z-score meeting or surpassing 0.3. Met: t. Not met: f.

{"Seq String": "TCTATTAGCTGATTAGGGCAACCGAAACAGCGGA", "Target Or System": "RXRa DBDmut IVT, anti-RXR (DBD mutation: RXRa K156A/R161A, NR concentration 90 nM)", "Cat": "t"}
{"Seq String": "TCAGACAGGTGAAGGTAGCTCAGGTACGCAGTCG", "Target Or System": "RXRa DBDmut IVT, anti-RXR (DBD mutation: RXRa K156A/R161A, NR concentration 90 nM)", "Cat": "t"}
{"Seq String": "CCTCGGAGGACATCAGGAGGTCAGAGCTGCCAGA", "Target Or System": "RXRa DBDmut IVT, anti-RXR (DBD mutation: RXRa K156A/R161A, NR concentration 90 nM)", "Cat": "f"}
{"Seq String": "ATCTCTAGGTAACACTCAGTTCAGTGAAGAACGC", "Target Or System": "RXRa DBDmut IVT, anti-RXR (DBD mutation: RXRa K156A/R161A, NR concentration 90 nM)", "Cat": "t"}
{"Seq String": "TGTCAAAGATCAAAGGTAACGTAAGTATCCACAC", "Target Or System": "RXRa DBDmut IVT, anti-RXR (DBD mutation: RXRa K156A/R161A, NR concentration 90 nM)", "Cat": "f"}
{"Seq String": "CGTCCAAGGTCAGAGAGGTCAGTGATTGCCGAGT", "Target Or System": "RXRa DBDmut IVT, anti-RXR (DBD mutation: RXRa K156A/R161A, NR concentration 90 nM)", "Cat": "t"}

###

Below, each entry is listed alongside its reported PBM binding z-score.
- Test system: PXR homodimer (NR concentration 270 nM)
- Experiment Notes: PBM binding z-score (relative to random genomic background probes); higher = stronger binding; sequences stand for … in GC…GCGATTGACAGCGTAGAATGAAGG

{"Seq String": "AGAACGAGGGCACGCTGAGTTAATAGCAGAGTAG", "PBM binding z-score": -0.237}
{"Seq String": "CCTACTGGGCCAAGGTCATTTATCAGTCAAAGCA", "PBM binding z-score": 1.73}
{"Seq String": "GCTAGCAGGCCATTTGGGTCCCTCAATGACGGGC", "PBM binding z-score": -1.15}
{"Seq String": "AGAATGAGGATACCAAAGATCAGGGAAACGCTTG", "PBM binding z-score": -0.0472}
{"Seq String": "TCTTGTAGATCAAGCGGGTTAAGAAAGCCTGAGT", "PBM binding z-score": -0.037}
{"Seq String": "CATACAGGGTCAGCTAGGCCAGAATAGGGACGGC", "PBM binding z-score": 0.0161}
{"Seq String": "TCATATAGCTAAAGGTGAAAGTCGAACGATATGA", "PBM binding z-score": 0.459}
{"Seq String": "TGAATGAGGTAAAAGATCAGGGAACGTGGCGTCG", "PBM binding z-score": -0.139}
{"Seq String": "CCTGCTAGGTCAATGGTCAGCCAAAGCAGCTCGC", "PBM binding z-score": -0.543}
{"Seq String": "AGCTCTAGGTAAAGTTCAGTGAAAGATCGATAGA", "PBM binding z-score": 1.19}
{"Seq String": "CATACTGGGCCATTCAGAGGTCATTGATCATATG", "PBM binding z-score": 2.58}
{"Seq String": "TGAATGAGGTTAAAGATAAGGGAACGTGGCGTCG", "PBM binding z-score": 0.106}

###

- Tested on: PPARg:RXRa DBDmut IVT, anti-RXR (DBD mutation: RXRa K156A/R161A, NR concentration 270 nM, RXRa partner concentration 90 nM)
- Experiment Notes: PBM binding z-score (relative to random genomic background probes); higher = stronger binding; sequences stand for … in GC…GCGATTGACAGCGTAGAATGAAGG
The recorded PBM binding z-score of each item maps onto one of these classes: low (below 1), mid (1 to below 3), high (3 or more)

{"Seq String": "ATCTCTAGGTAACCAAGTACAGTGAATGCCGAAC", "Cat": "high"}
{"Seq String": "CATACTAGGTCAAGAGGTCAAAGTCCGCTTCCCG", "Cat": "high"}
{"Seq String": "ATCGAAAGGTCGAAGAGGTGAGTATACACCGTTT", "Cat": "low"}
{"Seq String": "ATCGAAAGGTCGACGGTGAGTATACCCACCCGAA", "Cat": "low"}
{"Seq String": "ATATGTAGGTTACCTCCGGGTCATTCAGGCTATG", "Cat": "high"}
{"Seq String": "ATCTATAGGTAACAAGTTCAGTGAAAGAGAGGAC", "Cat": "mid"}
{"Seq String": "TCTAGTTGGTCCAAGGTCACACACTCGAAATGCG", "Cat": "mid"}
{"Seq String": "TCATGTAGATCAATAGAGGTTAAGAAAGTGCGCT", "Cat": "mid"}
{"Seq String": "ACTCGGAGGACAAAGCTCAGAGCTACGCCAGTGA", "Cat": "low"}
{"Seq String": "TCTTGTAGATCAAGCAGATTAAGAAAGCCTGAGT", "Cat": "mid"}
{"Seq String": "CCTGCTAGGTCAATGGTCCGCTAAAGCAGCTCGC", "Cat": "high"}
{"Seq String": "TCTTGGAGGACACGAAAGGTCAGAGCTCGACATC", "Cat": "mid"}

###

- Tested on: VDR:RXRa (NR concentration 270 nM, RXRa partner concentration 90 nM)
- Experiment Notes: PBM binding z-score (relative to random genomic background probes); higher = stronger binding; sequences stand for … in GC…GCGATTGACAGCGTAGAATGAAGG
Below, each entry is listed alongside its reported PBM binding z-score.

{"Seq String": "ACGAGCAGGCCAAGTTTGGGTCACTCAAACAAAG", "PBM binding z-score": 0.614}
{"Seq String": "CCGAGCAGGCCAGGGTCACTCAAGCATTTCGCTT", "PBM binding z-score": 2.6}
{"Seq String": "AGAACGAGGGCACGCTGAGTTGATTGCAGAGTAG", "PBM binding z-score": 2.04}
{"Seq String": "ATCTCTAGGTAAAAGTTCAGGGAATCCCGAGGAT", "PBM binding z-score": 1.54}
{"Seq String": "GCATATAGGTAATACAAGGTGCAAGTCCGATTGT", "PBM binding z-score": 0.355}
{"Seq String": "ATCTCTAGGTAACAAGTTCAGTCAAAGAGAGGAC", "PBM binding z-score": 1.74}
{"Seq String": "CGTCAAAGTTCAACTAAGGTGACGTAAAGCACGC", "PBM binding z-score": 4.87}
{"Seq String": "GGAACGAGGGCAAATTGATAGCAGAGTTTGATGG", "PBM binding z-score": 0.922}
{"Seq String": "CCTACTGGGCCACGAAAGGTCAGTGATTCAGTGA", "PBM binding z-score": 1.72}
{"Seq String": "GCGACTGGGGCATCAGCAGGATACCATAACTTAA", "PBM binding z-score": -0.816}
{"Seq String": "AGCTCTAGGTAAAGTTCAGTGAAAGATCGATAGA", "PBM binding z-score": 1.08}
{"Seq String": "CTCGAAAGCTCGTGCTCAGGTGAGTATACCAAAC", "PBM binding z-score": -0.8}
{"Seq String": "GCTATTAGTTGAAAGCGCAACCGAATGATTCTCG", "PBM binding z-score": -0.272}
{"Seq String": "TCTTGTAGATCAATTGAGGTTAAGAAAGTGCGCT", "PBM binding z-score": 1.86}
{"Seq String": "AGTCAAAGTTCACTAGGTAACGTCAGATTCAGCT", "PBM binding z-score": 3.95}
{"Seq String": "TATACAGGGTCGAAGGCCAGAGTACGAATGTCGA", "PBM binding z-score": 1.56}
{"Seq String": "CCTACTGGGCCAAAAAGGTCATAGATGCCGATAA", "PBM binding z-score": 4.4}
{"Seq String": "CCTTACGGGTCAAGGTTACAGCACGGGTGGTACG", "PBM binding z-score": 3.34}
{"Seq String": "CCTACTGGTCCATTCAGAGGTCATTGATCATATG", "PBM binding z-score": 4.24}
{"Seq String": "CGTTCAAGGTCAGCAGGTCAGTGAAAGCGACGTG", "PBM binding z-score": 4.25}
{"Seq String": "AGAAGGAGGGCACGCTGAGTTGATAGCAGAGTAG", "PBM binding z-score": 1.41}
{"Seq String": "ATATGTAGGTGAGCTGGGGTCATTCAGACTAGGC", "PBM binding z-score": 5.66}
{"Seq String": "ATCTCTAGGGAAAGTTCAGTGAAAGATCGATAGA", "PBM binding z-score": 1.12}
{"Seq String": "CGTCCAAGGTCAAGATCAGTGAAAGAGACTCGAA", "PBM binding z-score": 3.61}
{"Seq String": "ATATGTAGGTTAAGGGTCCTTCAGGTTGGTTCGC", "PBM binding z-score": 1.67}
{"Seq String": "TCATATAGGTAAAAGGTGAAAGTTGGTGTGGTAA", "PBM binding z-score": 1.88}
